# TARGET SYSTEM: T1, hIL2-DM-his (human, UniProt P60568 21-153)
# T1 construct: expressed in ExpiCHO-S cells, nickel-column purified; also called hIL-2 mutein containing two point mutations K64G and N90R (with a his-tag); not shown: his-tag
# T1 sequence (P60568 21-153 K84G/N110R): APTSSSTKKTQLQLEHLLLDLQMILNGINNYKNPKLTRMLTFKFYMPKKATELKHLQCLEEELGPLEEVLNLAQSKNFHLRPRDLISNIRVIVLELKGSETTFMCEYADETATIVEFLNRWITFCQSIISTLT
# ASSAY PROCEDURE: BLI ForteBio, Ab on Protein A sensor
Each entry below lists one item and its recorded kon value.
PROPERTY: kon (M⁻¹ s⁻¹)

{"columns": ["BINDER", "DATA VALUE"],
 "data": [
  ["K3G3 (antibody, V domains shown) VH: QVQLVQSGAEVKKPGATVKISCKVSGDTITAYYMHWVRQAPGQGLEWIGRIDPDDDSTKYAENFKGRVTITADTSTDTAYMELSSLRSEDTAVYYCTTVTFYYSRELRWFAYWGQGTLVTVSS VL: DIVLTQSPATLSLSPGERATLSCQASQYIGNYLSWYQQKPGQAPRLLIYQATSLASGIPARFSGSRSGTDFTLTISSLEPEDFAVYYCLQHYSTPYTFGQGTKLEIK", 400000],
  ["K3G6 (antibody, V domains shown) VH: QVQLVQSGAEVKKPGATVKISCKVSGDTITAYYMHWVRQAPGQGLEWIGRIDPDDDSTKYAENFKGRVTITADTSTDTAYMELSSLRSEDTAVYYCTTITFYYSRELRWFAYWGQGTLVTVSS VL: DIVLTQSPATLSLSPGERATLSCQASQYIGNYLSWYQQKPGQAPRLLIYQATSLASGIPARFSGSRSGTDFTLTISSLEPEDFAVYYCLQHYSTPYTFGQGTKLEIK", 397000],
  ["K4G3 (antibody, V domains shown) VH: QVQLVQSGAEVKKPGATVKISCKVSGDTITAYYMHWVRQAPGQGLEWIGRIDPDDDSTKYAENFKGRVTITADTSTDTAYMELSSLRSEDTAVYYCTTVTFYYSRELRWFAYWGQGTLVTVSS VL: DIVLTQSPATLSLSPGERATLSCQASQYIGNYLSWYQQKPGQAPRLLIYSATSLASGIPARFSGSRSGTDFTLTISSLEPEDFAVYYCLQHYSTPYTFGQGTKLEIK", 351000]
]}

Just for reference, patent US20250346644A1 is where these values come from.
